target: Hsp90α (Homo sapiens, UniProt P07900); experiment: Surface plasmon resonance binding to immobilized Hsp90α; set-up: purchased Stress-gen Bioreagents Corporation, Victoria, Canada SPP-776; details: SPR, 25 °C, mean ± standard deviation (n = 3)
value_kind: KD

compound: CC(=O)O[C@H]1C[C@@]2(C)[C@H](C3=CC(=O)O[C@@H]3O)OC(=O)[C@H]3O[C@]32[C@@]2(C)[C@H]1[C@@]1(C)C=CC(=O)OC(C)(C)[C@@H]1C[C@H]2OC(C)=O [Compound 5, 7-deoxo-7α,11β-diacetoxykihadanin A]
value_kind: KD
reading: no binding
//
compound: COC(=O)C[C@H](OC(C)=O)[C@]1(C)[C@H]2[C@@H](OC(C)=O)C[C@@]3(C)[C@H](c4ccoc4)OC(=O)[C@H]4O[C@]43[C@]2(C)[C@H](OC(C)=O)C[C@H]1C(C)(C)O [Compound 12, odoralide]
value_kind: KD
reading: no binding
//
compound: CC(=O)O[C@H]1CC(=O)OC(C)(C)[C@@H]2C[C@@H](OC(C)=O)[C@@]3(C)C4=CC[C@@H](C(O)(CO)CCO)[C@]4(C)CC[C@@H]3[C@@]12C (stereo partly shown) [Compound 7, cedrelosin F]
value_kind: KD
reading: no binding

----------
target: UniProtKB P07900
Label TRUE when Kd is strictly below 30 nM; at or above that, label FALSE.

compound: CC(=O)O[C@H]1C[C@@]2(C)[C@H](C3=C[C@@H](O)OC3=O)OC(=O)[C@H]3O[C@]32[C@@]2(C)[C@H]1[C@@]13COC(=O)C[C@@H]1OC(C)(C)[C@@H]3C[C@H]2OC(C)=O
group_label: FALSE

compound: COC(=O)[C@@H](OC(C)=O)[C@H]1C(C)(C)[C@H](O)[C@@H]2CC3=C4CC(=O)O[C@@H](c5ccoc5)[C@]4(C)CC[C@@H]3[C@@]1(C)C2=O [Compound 13, 6-O-acetylswietenolide]
group_label: TRUE

compound: C/C=C(\C)C(=O)O[C@@H]1/C=C\[C@]2(O)C3=CC(=O)O[C@@H](c4ccoc4)[C@]3(C)CC[C@]2(O)[C@]2(C)C(=O)C[C@@]1(C)[C@@H]2CC(=O)OC (relative stereo)
group_label: TRUE

compound: CC(=O)O[C@H]1C[C@@]2(C)[C@H](c3ccoc3)OC(=O)[C@H]3O[C@]32[C@@]2(C)[C@H]1[C@@]1(C)C=CC(=O)OC(C)(C)[C@@H]1C[C@H]2OC(C)=O [Compound 11, 11β-acetoxybacunyl acetate]
group_label: TRUE

compound: CC(=O)O[C@H]1C[C@@]2(C)[C@H](c3ccoc3)OC(=O)[C@H]3O[C@]32[C@]2(C)[C@H](O)C[C@H]3C(C)(C)O[C@H]4CC(=O)OC[C@]43[C@@H]12
group_label: TRUE

----------
Molecular target: Hsp90α (Homo sapiens, UniProt P07900)
Test: Surface plasmon resonance binding to immobilized Hsp90α
Design: purchased Stress-gen Bioreagents Corporation, Victoria, Canada SPP-776
Details: SPR, 25 °C, mean ± standard deviation (n = 3)
Description: 1 and 4 μM), and, for each sample, a complete binding study was carried out in triplicate. The experiments were performed at 25 °C, using a flow rate of 50 μL/min, with 60 s monitoring of association and 300 s monitoring of dissociation. Changes in mass, due to the binding response, were recorded as resonance units (RU). To obtain the dissociation constant (KD), these responses were fit to a 1:1 Langmuir binding model by nonlinear regression, using the BiaEvaluation sofware program (GE Healthcare). […]
value_kind: KD

compound: COC(=O)C[C@H]1C(C)(C)[C@H](OC(=O)C(O)C(C)C)[C@@H]2C=C3C4CC(=O)O[C@@H](c5ccoc5)[C@]4(C)CC[C@@H]3[C@@]1(C)C2=O (some centres unmarked) [Compound 4, 3-(2′-hydroxyisovaleroyl)khasenegasin I]
measured_target: Hsp90α (Homo sapiens, UniProt P07900)
value_kind: KD
reading: no binding
--
compound: C=C(C)C(=O)O[C@@H]1/C=C\[C@]2(O)C3=CC(=O)O[C@@H](c4ccoc4)[C@]3(C)CC[C@]2(O)[C@]2(C)C(=O)C[C@@]1(C)[C@@H]2CC(=O)OC
measured_target: Hsp90α (Homo sapiens, UniProt P07900)
value_kind: KD
reading: no binding
